# system: T1, Human CD19-his protein (human, UniProt P15391 20-291)
# T1 construct: bought protein; also called recombinant human CD19-His; CD19 full-length protein; not shown: His tag
# T1 sequence (looked up): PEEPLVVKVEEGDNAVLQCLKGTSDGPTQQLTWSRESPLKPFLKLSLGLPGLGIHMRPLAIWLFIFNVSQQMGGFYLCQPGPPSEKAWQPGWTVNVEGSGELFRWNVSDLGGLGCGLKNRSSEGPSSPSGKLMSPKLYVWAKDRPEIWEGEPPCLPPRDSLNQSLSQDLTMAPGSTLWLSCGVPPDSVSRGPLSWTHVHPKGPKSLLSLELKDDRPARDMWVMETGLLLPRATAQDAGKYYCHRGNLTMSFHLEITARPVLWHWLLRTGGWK
# assay details: SPR Biacore, Ab captured on Protein A, CD19-His analyte
experimental readout: koff (s⁻¹)
Report as a plain number; the unit s⁻¹ is understood.

Illustrative cases are given below, each with its answer.
- binder: "F3.13.2 (antibody, human IgG1, V domains shown, human-murine chimeric antibody, human IgG1 constant) VH: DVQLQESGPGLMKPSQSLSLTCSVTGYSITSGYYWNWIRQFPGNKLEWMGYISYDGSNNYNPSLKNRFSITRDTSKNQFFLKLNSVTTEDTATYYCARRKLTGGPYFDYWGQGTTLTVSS VL: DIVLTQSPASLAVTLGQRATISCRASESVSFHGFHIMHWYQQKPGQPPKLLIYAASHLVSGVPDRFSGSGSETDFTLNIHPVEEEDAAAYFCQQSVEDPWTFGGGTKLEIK"
  koff (s⁻¹): 0.000526
- binder: "F4.48.12 (antibody, human IgG1, V domains shown, human-murine chimeric antibody, human IgG1 constant) VH: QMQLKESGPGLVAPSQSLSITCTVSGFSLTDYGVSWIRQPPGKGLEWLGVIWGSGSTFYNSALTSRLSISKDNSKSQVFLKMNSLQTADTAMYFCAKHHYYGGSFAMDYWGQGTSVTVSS VL: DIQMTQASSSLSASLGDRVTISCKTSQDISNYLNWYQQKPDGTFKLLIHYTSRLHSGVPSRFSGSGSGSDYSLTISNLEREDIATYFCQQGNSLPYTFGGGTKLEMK"
  koff (s⁻¹): 0.000129

We now examine a further binder.
koff reading for F4.41.1 (antibody, human IgG1, V domains shown, human-murine chimeric antibody, human IgG1 constant) VH: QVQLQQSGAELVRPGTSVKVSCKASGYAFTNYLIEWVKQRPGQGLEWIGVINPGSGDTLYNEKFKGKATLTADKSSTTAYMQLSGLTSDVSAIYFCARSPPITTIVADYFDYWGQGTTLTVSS VL: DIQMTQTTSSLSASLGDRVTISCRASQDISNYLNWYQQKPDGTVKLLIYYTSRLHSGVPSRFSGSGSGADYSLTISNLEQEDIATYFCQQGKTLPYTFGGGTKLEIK : 0.00239
